binders and their reported IC50
- testTarget: T1, hCD112R mFC recombinant protein (human; murine, UniProt Q6DKI7 41-160)
- T1 construct: range 41-160; expressed in 293E cells; also called hCD112R ECD mFC; hCD112R-ECD-mFC; not shown: murine IgG2a Fc domain (MX2-mFc vector)
- T1 sequence (looked up): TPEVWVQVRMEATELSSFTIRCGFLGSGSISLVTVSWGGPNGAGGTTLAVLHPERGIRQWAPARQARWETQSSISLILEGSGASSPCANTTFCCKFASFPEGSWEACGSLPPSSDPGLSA
- measurementDescription: FACS competition, hCD112R mFc on CHO CD112 cells

{"binder": "Chi-47 (antibody, V domains shown, chimeric) VH: DVKLVESGGGLVKLGGSLKLSCAASGFTFSSYHMSWVRQTPEKRLELVAAINSNVISTYYLDTVKGRFTISRDNAKNTLYLQMSSLKSEDTALYYCARHEDYYGFAMDYWGQGTSVTVSS VL: SIVMTQTPKFLLVSAGDRVTITCKASQSVTNDVAWYQQKPGQSPKLLMYYVSNHYTGVPDRFIGSGYGTDFTFTISTVQAEDLAVYFCQQAYRSPWTFGGGTKLEIK", "valueUnits": "µg/mL", "IC50": 0.876}
{"binder": "Chi-70 (antibody, V domains shown, chimeric) VH: DVQLVESGGGLVKLGGSLKLSCVASGFTFSSYHMSWIRQTPEKRLELVAAINSNDINTYYLDTVKGRFTISRDIAKNTLHLQMSSLKSEDTALYYCARHEDYYGFAMDYWGQGTSVTVSS VL: SIVMTQTPKFLLVSAGDRVTITCKASQSVSNDVAWYQQKPGQSPKLLMYYVSNRFTGVPDRFTGSGYGTDFTFTINTVQAEDLAVYFCQQAYRSPWTFGGGTKLEIK", "valueUnits": "µg/mL", "IC50": 0.708}
{"binder": "Chi-61 (antibody, V domains shown, chimeric) VH: DVKLVESGGGLVKLGGSLKLSCAASGFTFSSYHMSWVRQTPEKRLELVAAISRDGDSTYYPDTVKGRFTISRDDAENTLYLQMSSLKSEDTALYYCSRHEDYFGFAMDSWGQGTSVTVSS VL: SIVMTQTPKFLLVSAGDRVTITCKASQSVSNDVAWYQEKPGQSPKLLMYYVSHRFTGVPDRFTGSGYGTDFTFTINTVQAEDLAVYFCHQAYRSPWTFGGGTKLEIK", "valueUnits": "µg/mL", "IC50": 0.965}
{"binder": "Chi-62 (antibody, V domains shown, chimeric) VH: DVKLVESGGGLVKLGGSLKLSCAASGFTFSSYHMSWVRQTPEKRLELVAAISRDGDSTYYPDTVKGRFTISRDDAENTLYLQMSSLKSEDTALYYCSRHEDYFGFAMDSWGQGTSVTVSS VL: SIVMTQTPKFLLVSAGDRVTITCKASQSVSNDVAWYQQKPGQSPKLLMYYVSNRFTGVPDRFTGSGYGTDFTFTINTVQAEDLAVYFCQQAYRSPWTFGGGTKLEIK", "valueUnits": "µg/mL", "IC50": 0.964}
{"binder": "Chi-71 (antibody, V domains shown, chimeric) VH: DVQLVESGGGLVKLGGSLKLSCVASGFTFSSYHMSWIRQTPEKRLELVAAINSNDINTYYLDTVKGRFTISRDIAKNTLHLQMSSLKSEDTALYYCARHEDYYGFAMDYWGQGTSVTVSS VL: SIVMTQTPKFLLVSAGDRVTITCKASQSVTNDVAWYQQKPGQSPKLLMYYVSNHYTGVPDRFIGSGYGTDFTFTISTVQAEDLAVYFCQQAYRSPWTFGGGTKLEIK", "valueUnits": "µg/mL", "IC50": 0.733}
{"binder": "Chi-53 (antibody, V domains shown, chimeric) VH: DVKLVESGGGLVKLGGSLKLSCAASGFTFSSYHMSWIRQTPEKRLELVAAINSNGINTYYLDTVKGRFTISRDNAKNTLYLQMSSLKSEDTALYYCARHEDYYGFAMDYWGQGTSVTVSS VL: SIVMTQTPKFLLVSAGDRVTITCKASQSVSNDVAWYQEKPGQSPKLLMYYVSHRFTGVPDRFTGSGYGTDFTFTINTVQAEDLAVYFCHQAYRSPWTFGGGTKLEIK", "valueUnits": "µg/mL", "IC50": 0.979}
{"binder": "Chi-46 (antibody, V domains shown, chimeric) VH: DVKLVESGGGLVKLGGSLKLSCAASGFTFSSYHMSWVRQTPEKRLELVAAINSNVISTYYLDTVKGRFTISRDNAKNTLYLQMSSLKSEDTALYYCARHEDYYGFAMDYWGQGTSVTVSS VL: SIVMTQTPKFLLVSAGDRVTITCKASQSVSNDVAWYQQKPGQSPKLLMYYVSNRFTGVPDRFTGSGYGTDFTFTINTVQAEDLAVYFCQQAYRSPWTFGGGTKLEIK", "valueUnits": "µg/mL", "IC50": 0.8}
{"binder": "Chi-69 (antibody, V domains shown, chimeric) VH: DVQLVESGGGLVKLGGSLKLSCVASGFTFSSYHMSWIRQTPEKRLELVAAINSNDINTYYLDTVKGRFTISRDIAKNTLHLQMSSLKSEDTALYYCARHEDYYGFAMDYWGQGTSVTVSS VL: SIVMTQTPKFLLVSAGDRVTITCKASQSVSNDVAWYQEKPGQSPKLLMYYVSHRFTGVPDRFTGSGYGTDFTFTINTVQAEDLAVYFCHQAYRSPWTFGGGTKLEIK", "valueUnits": "µg/mL", "IC50": 0.959}
{"binder": "Chi-55 (antibody, V domains shown, chimeric) VH: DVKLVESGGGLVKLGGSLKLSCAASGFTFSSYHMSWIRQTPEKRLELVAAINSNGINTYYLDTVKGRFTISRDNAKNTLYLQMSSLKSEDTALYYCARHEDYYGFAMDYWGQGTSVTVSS VL: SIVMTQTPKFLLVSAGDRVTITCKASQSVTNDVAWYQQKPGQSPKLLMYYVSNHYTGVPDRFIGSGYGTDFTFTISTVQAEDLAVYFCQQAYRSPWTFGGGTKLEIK", "valueUnits": "µg/mL", "IC50": 1.02}
